B1: Caulobacter ParB omega fusion; a variant is named by its letters at X, in order, B8GW30 (parent)
chain: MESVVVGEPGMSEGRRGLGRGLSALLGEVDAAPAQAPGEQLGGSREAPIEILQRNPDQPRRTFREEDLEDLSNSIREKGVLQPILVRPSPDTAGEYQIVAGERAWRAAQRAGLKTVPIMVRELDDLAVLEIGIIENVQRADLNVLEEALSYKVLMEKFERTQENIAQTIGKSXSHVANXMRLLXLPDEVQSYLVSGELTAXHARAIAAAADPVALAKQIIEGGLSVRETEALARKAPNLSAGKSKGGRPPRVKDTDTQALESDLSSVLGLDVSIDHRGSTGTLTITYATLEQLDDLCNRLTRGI

- Variants of: B1
- Protocol: one-hybrid fitness for binding parS DNA (scaled: cognate 1, non-cognate 0); higher = stronger binding
- Assay setup: with parS DNA site
Whole data set: some 81,000 sequences, median “one-hybrid fitness for binding parS DNA” near -0.17, cut for the highest 2% near 0.51. The entries come from a sample that favours the highest values as a whole.
Measured parameter: one-hybrid fitness for binding parS DNA

| Mutation key | Result |
| --- | --- |
| KKAL | ≤ 0.2 |
| WKGT | ≤ 0.2 |
| KLMV | ≤ 0.2 |
| PVLC | ≤ 0.2 |
| RMTG | 1.02 |
| QDPW | ≤ 0.2 |
| RTKF | 0.734 |
| RMYY | 0.483 |
| RVED | ≤ 0.2 |
| RARL | ≤ 0.2 |
| RFTG | 0.977 |
| RHTG | 0.967 |
| RVES | 0.948 |
| RMIY | 0.467 |
| RTYF | 0.259 |
| RCKF | 0.541 |
| TEAW | ≤ 0.2 |
| RPRY | ≤ 0.2 |
| RHTK | ≤ 0.2 |
| RYSQ | ≤ 0.2 |
| RMTH | 0.218 |
| RMRY | 0.777 |
| KTML | ≤ 0.2 |
| GRDV | ≤ 0.2 |
| RVEK | ≤ 0.2 |
| RTYY | 0.49 |
| VDFT | ≤ 0.2 |
| RMTK | ≤ 0.2 |
| SESV | ≤ 0.2 |
| LAVM | ≤ 0.2 |
| NKQR | ≤ 0.2 |
| NYQC | ≤ 0.2 |
| NGLP | ≤ 0.2 |
| RYRF | ≤ 0.2 |
| HAAI | ≤ 0.2 |
| RIAY | 0.484 |
| RVEN | 0.294 |
